Biological target: Sialic acid-binding Ig-like lectin 9 (Homo sapiens) (UniProt Q9Y336)
Sequence (Q9Y336 whole entry): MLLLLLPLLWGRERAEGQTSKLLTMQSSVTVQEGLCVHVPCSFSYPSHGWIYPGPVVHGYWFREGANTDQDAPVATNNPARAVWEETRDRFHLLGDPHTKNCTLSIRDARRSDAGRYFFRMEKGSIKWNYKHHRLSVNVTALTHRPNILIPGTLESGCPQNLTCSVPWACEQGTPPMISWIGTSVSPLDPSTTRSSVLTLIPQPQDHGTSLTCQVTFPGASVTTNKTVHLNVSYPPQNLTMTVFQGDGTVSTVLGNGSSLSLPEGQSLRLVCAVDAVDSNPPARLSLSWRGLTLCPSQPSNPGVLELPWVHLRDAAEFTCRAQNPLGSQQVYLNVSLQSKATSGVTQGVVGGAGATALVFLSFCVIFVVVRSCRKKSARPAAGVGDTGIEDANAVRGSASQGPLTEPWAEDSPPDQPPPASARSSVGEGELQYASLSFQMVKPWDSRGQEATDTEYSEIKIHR
Experiment: Hs-Siglec9 ALPHAscreen SOP 20170721
Parameters: scale not given: direction of the effect not stated beside the values
Conditions: 10 µM
measure_name: Percent Effect (%)
Form entry: value (%) — number only.

Example entries begin here.
>>> df
                                   molecule                                 tested_on  reported
0  O=C(C1CCC1)N1CCN(C(=O)c2cnccn2)[C@H]2CS(=O)(=O)C[C@H]21  Sialic acid-binding Ig-like lectin 9 (Homo sapiens) (UniProt Q9Y336)      16.5
1  Cc1nc(C)n(CC2CCCN2Cc2nc(-c3cccs3)no2)n1 (configuration not stated)  Sialic acid-binding Ig-like lectin 9 (Homo sapiens) (UniProt Q9Y336)      6.54
2       CCN(C)c1ncnc2c1CCN(C(=O)c1ccno1)CC2  Sialic acid-binding Ig-like lectin 9 (Homo sapiens) (UniProt Q9Y336)      3.39
3  CCc1noc(C2CCCCN2C(=O)c2ccn(C3CCCC3)n2)n1 (configuration not stated)  Sialic acid-binding Ig-like lectin 9 (Homo sapiens) (UniProt Q9Y336)     -4.33
4  O=c1oc(-c2cccs2)nn1CC(O)c1ccccc1 (configuration not stated)  Sialic acid-binding Ig-like lectin 9 (Homo sapiens) (UniProt Q9Y336)      2.71

Query: Identify the measured Percent Effect of OC(CN1CCOCC1)c1ccc(OC(F)(F)F)cc1 (configuration not stated) for Sialic acid-binding Ig-like lectin 9 (Homo sapiens) (UniProt Q9Y336).
Reply: -1.38

Query: # iterate: Cc1cnn(C2CCCN(C(=O)c3ccc(N(C)C)nn3)C2)c1 (configuration not stated)
Reply: -3.44

Values compiled from ChEMBL document CHEMBL3988442.
